targetSystem: T1, extracellular domain of activin receptor type IIB (ActRIIBecd), biotinylated (Homo sapiens (Human), UniProt Q13705 27-117, amino-biotinylated with amine-PEG3-Biotin)
T1 construct: immobilised on a streptavidin-coated sensor chip; also called biotinylated ActRIIBecd; extracellular domain of ActRIIB
T1 sequence: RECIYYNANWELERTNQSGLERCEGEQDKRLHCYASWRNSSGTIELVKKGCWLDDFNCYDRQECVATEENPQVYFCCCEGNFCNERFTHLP
protocolDescription: BIAcore SPR, biotinylated ActRIIBecd on chip; SD ±23.17 nM
Description: Biosensor experiments. In one embodiment, experiments were performed on a BIAcore™ T100/T200 instrument (Pharmacia Biosensor AB) in the multichannel mode (serial flow path involving flow cells 1+2+3+4). Flow rate was 10 μl/min; temperature was 25° C.; and data were recorded at 2.5 points/s. All four segments of a sensor chip CMS were coated with streptavidin (Sigma) to a density of 2000 pg/mm² (2000 resonance units) by the aminocoupling procedure. […]
reportedMetric: Kd (nM)
Only the number, expressed in nM, is required.

Item under review: AQAKHKGRKRLKSSCKRHPLY [Clone No. 11 domain (ActRIIBecd-associated polypeptide)] . Reported Kd?
63.7
